details: acidic group
quantity kind: pKa
// no unit, no text: just the number

## Task # pKa lookup, item CC[NH+](CC)Cc1cc([N+](=O)[O-])ccc1O
## Result 5.75

## Task Quick one: Cc1cc(O)n(-c2nc(O)cc(C)[nH+]2)n1
## Result 5.23

## Task Quick one: O=C(NO)c1ccccc1
## Result 8.71

## Task Quick one: CC1(C)O[C@@H]2CC(=O)OC[C@]23[C@@H]1CC(=O)[C@@]1(C)[C@H]3C[C@](C)(CC2CCOC2)C[C@]12O[C@H]2C(=O)O (stereo partly specified)
## Result 2.7

## Task Quick one: [NH3+]CCNC(=S)S
## Result 2

## Task Quick one: C[NH+]1C[C@@H](C(=O)O)C[C@@]2(O)c3cccc4[nH]cc(c34)C[C@@H]12
## Result 3.38

====

details: basic group
quantity kind: pKa
// no unit, no text: just the number

## Task # pKa lookup, item Cn1cnc2cc(N)ccc21
## Result 6.29

====

conditions: basic group
Everything with pKa lower than 9 is 0; everything else, including exactly 9, is 1.

>  <compound>
Cc1ncc(CO)c(CN)c1[O-]

>  <assigned label>
1

$$$$
>  <compound>
C[C@H]1CCCC[C@@H]1N

>  <assigned label>
1

$$$$
>  <compound>
C[NH+](C)CCNCC[NH3+]

>  <assigned label>
0

$$$$
>  <compound>
Cc1ccnc(N)c1

>  <assigned label>
0

$$$$
>  <compound>
CC(=O)NCCN

>  <assigned label>
1

$$$$

## Task Could you please find out whether CCCNCC[S-] has pKa that meets 9 or exceeds it?
## Result 1

## Task Quick one: OCCc1ccccn1
## Result 0

## Task Quick one: CN1C(=O)N(CCN2CCOCC2)C(=O)C(C)(C2=CCCCC2)C1=O (stereo not given)
## Result 0

## Task Quick one: Cc1c(O)cncc1C1CCCCC1
## Result 0

## Task Quick one: O=C([O-])c1ccncc1
## Result 0

## Task Quick one: COc1c(C(=O)N[C@@H]2C[C@H]3CC[C@@H](C2)N3Cc2ccccc2)cccc1[N+](=O)[O-]
## Result 0

## Task Quick one: COc1ccnc2ccccc12
## Result 0

## Task Quick one: Cc1cc(C)n(Cc2cc(C)[nH]n2)n1
## Result 0

## Task Quick one: CCCCCCCCCCN(CC(C)O)CC(C)O (stereo not given)
## Result 0

====

conditions: acidic group
Everything with pKa lower than 9 is FALSE; everything else, including exactly 9, is TRUE.

Take a look at these entries with their results.
>  <line notation>
Cc1cccc(Br)c1C(=O)O

>  <assigned label>
FALSE

$$$$
>  <line notation>
CCOC(=O)COc1ccc(C(=O)c2ccc(O)c(C[NH3+])c2)cc1

>  <assigned label>
FALSE

$$$$
>  <line notation>
CC1(C)C(=O)[CH-]C(=O)CC1=O

>  <assigned label>
TRUE

$$$$
>  <line notation>
Cn1cnc2cc(O)ccc21

>  <assigned label>
TRUE

$$$$
>  <line notation>
O=C(O)CSc1cccc([N+](=O)[O-])c1

>  <assigned label>
FALSE

$$$$
>  <line notation>
COc1cc(C(N)=O)ccc1-c1nc2nn(C)cc2[nH]1

>  <assigned label>
TRUE

$$$$
>  <line notation>
COc1cccnc1C(O)O

>  <assigned label>
TRUE

$$$$
>  <line notation>
O=C(O)c1cc(Br)cs1

>  <assigned label>
FALSE

$$$$

## Task Could you please find out whether CC[N+](O)(CC)CC has pKa that meets 9 or exceeds it?
## Result FALSE

## Task Quick one: O=S(=O)(NCc1ccccc1)c1ccc(Br)cc1
## Result TRUE

====

conditions: basic group
Catalogue of pKa readings, one per entry.
// no unit, no text: just the number

Some solved entries appear below for comparison.
>  <compound>
CCC(=O)c1ccccc1

>  <recorded number>
17.6

$$$$
>  <compound>
NC(=O)/C=C(\O)c1ccccn1

>  <recorded number>
8.23

$$$$
>  <compound>
Nc1ccccc1[NH3+]

>  <recorded number>
1.3

$$$$

## Task # pKa lookup, item Nc1ncc2ncn([C@H]3O[C@@H](CO)[C@H](O)[C@@H]3O)c2n1
## Result 3.4

## Task Quick one: Cc1cnc2ccccc2c1
## Result 5.15

## Task Quick one: NCCCCCCC(=O)[O-]
## Result 10.9

## Task Quick one: [S-]c1ncnc2ncncc12
## Result 6.23

====

Catalogue of pKa readings, one per entry.
settings: basic group

>  <compound>
O=P([O-])([O-])C(NCc1ccccn1)c1ccccc1[O-] (stereo not drawn)

>  <pKa>
12.1

$$$$
>  <compound>
Cc1cc(Br)cc(C)c1N

>  <pKa>
3.54

$$$$
>  <compound>
COc1cc(S(C)=O)ccc1-c1nc2ccccc2[nH]1 (stereo not drawn)

>  <pKa>
4.76

$$$$
>  <compound>
NCCC[NH2+]CCO

>  <pKa>
8.19

$$$$

## Task # pKa lookup, item FC(F)(F)c1cccc2ncccc12
## Result 3.09

====

Catalogue of pKa readings, one per entry.
settings: basic group

## Task # pKa lookup, item Cn1c(=O)[nH]c2ncn(C)c2c1=O
## Result 0.5

## Task Quick one: COc1ccc([N+](=O)[O-])c2cccnc12
## Result 3.55

====

settings: basic group
Catalogue of pKa readings, one per entry.
// no unit, no text: just the number

## Task # pKa lookup, item [O-]c1cccc(Cl)n1
## Result 7.76

## Task Quick one: Nc1ccc2nc3ccccc3cc2c1
## Result 5.88

## Task Quick one: C#CC(C)(C)Nc1ccccc1
## Result 4.26

====

conditions: acidic group
quantity kind: pKa

Some solved entries appear below for comparison.
>  <line notation>
O=C(O)c1cc2cc(Cn3cc[nH+]c3)ccc2o1

>  <pKa>
2.38

$$$$
>  <line notation>
CCNC(=O)/C=C(/[70SH])c1ccccc1

>  <pKa>
4.73

$$$$
>  <line notation>
[NH3+]CCCCCCCCCC(=O)O

>  <pKa>
4.57

$$$$
>  <line notation>
CC1(C)CC(=O)C(Br)C(=O)C1

>  <pKa>
3.1

$$$$
>  <line notation>
NS(=O)(=O)c1nc2ccccc2s1

>  <pKa>
7.8

$$$$

## Task # pKa lookup, item O=C(O)c1cc(O)c(O)c(C(=O)O)[o+]1
## Result 0.6

## Task Quick one: CC(C)(C)OOCCC(=O)O
## Result 4.36

## Task Quick one: O=C1CCC(=O)C1
## Result 4.5

## Task Quick one: O=CNOC(=O)/C=C/c1ccccc1
## Result 5.9

## Task Quick one: N#Cc1ccc(S(=O)(=O)NCc2ccccc2)cc1
## Result 10.3

## Task Quick one: Cc1cnc2c(O)cccc2c1
## Result 9.75

====

details: acidic group
Catalogue of pKa readings, one per entry.

>  <compound>
O=c1cc(-c2ccccc2)oc2c(O)cccc12

>  <quantity kind>
pKa

>  <result>
7.82

$$$$
>  <compound>
CC(=O)NCCS

>  <quantity kind>
pKa

>  <result>
9.5

$$$$
>  <compound>
COP(=O)([O-])NS(C)(=O)=O

>  <quantity kind>
pKa

>  <result>
6.55

$$$$
>  <compound>
Oc1cc(O)cc(O)c1

>  <quantity kind>
pKa

>  <result>
8.83

$$$$

## Task # pKa lookup, item Cc1ccc(C(=S)Nc2ccc(Br)cc2)cc1
## Result 10.8

## Task Quick one: CO
## Result 15.5

## Task Quick one: C=C(C)/C(C)=C(\C)O
## Result 12

## Task Quick one: NC(=O)c1c(CC(=O)O)n[nH]c1N
## Result 3.5

====

conditions: basic group
Catalogue of pKa readings, one per entry.
// no unit, no text: just the number

Some solved entries appear below for comparison.
>  <compound>
Nc1ccc2c(c1)Cc1c(O)cccc1-2

>  <pKa>
4.63

$$$$
>  <compound>
Nc1cc(/C=C/c2ccccc2)nc2ccccc12

>  <pKa>
9.3

$$$$
>  <compound>
CN(C)CCCCCCCCCNC(=O)/C=N/[O-]

>  <pKa>
10.5

$$$$

The record that follows has no pKa shown yet.
## Task # pKa lookup, item Cc1cnc2c(c1)c(C)cc1c(C)c(C)cnc12
## Result 6.07

====

conditions: acidic group
Everything with pKa lower than 6 is Not satisfied; everything else, including exactly 6, is Satisfied.

Take a look at these entries with their results.
>  <compound>
C[NH+](C)Cc1cc([N+](=O)[O-])ccc1O

>  <assigned label>
Not satisfied

$$$$
>  <compound>
C[N+](C)(C)CCc1cccc(O)c1

>  <assigned label>
Satisfied

$$$$
>  <compound>
[O-]c1cccc2c1-c1cccc(O)c1-2

>  <assigned label>
Satisfied

$$$$

## Task Could you please find out whether CC(C)S(=O)O has pKa that meets 6 or exceeds it?
## Result Not satisfied

## Task Quick one: Fc1cccc(NC(=S)c2ccc(Cl)cc2)c1
## Result Satisfied

## Task Quick one: O=C1C(O)=C(c2ccccc2)C(=O)c2ccccc21
## Result Not satisfied

## Task Quick one: OC[C@H]1O[C@@H]2NC(=S)O[C@@H]2[C@H]1O
## Result Satisfied

## Task Quick one: [NH3+][C@@H](CCC(=O)O)C(=O)[O-]
## Result Not satisfied
